Positions of bridges follow the written chain, without caps; N, C: chain ends. Non-standard residues stand in square brackets, D forms with d. Residues, ends and D or L forms follow the SMILES beside them.
For reference, IC50 measured on Somatostatin receptor type 2 (Homo sapiens, UniProt P30874):
# number only, unit nM dropped from output

Some compounds with recorded IC50:
>  <compound>
C[C@@H](O)[C@H](NC(=O)[C@@H]1CSSC[C@H](NC(=O)[C@@H](Cc2ccccc2)NC(N)=O)C(=O)N[C@@H](Cc2ccc(NC(N)=O)cc2)C(=O)N[C@H](Cc2c[nH]c3ccccc23)C(=O)N[C@@H](CCCCN)C(=O)N[C@@H]([C@@H](C)O)C(=O)N1)C(N)=O

>  <assayed-system>
Somatostatin receptor type 2 (Homo sapiens, UniProt P30874)
Sequence (P30874 whole entry): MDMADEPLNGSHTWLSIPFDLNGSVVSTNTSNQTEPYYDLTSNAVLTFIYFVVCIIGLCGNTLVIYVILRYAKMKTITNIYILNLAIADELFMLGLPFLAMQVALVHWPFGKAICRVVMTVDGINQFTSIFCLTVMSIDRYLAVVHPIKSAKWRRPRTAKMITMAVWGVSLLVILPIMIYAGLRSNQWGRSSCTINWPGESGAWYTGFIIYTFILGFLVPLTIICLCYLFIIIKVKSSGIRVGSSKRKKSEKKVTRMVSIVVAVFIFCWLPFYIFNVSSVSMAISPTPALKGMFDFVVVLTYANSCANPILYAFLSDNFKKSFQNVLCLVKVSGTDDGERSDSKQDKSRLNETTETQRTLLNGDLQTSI

>  <unit-abbreviation>
nM

>  <IC50>
6.2

$$$$
>  <compound>
C[C@@H](O)[C@H](NC(=O)[C@@H]1CSSC[C@H](NC(=O)[C@H](Cc2ccccc2)NC(N)=O)C(=O)N[C@@H](Cc2ccc(NC(N)=O)cc2)C(=O)N[C@H](Cc2c[nH]c3ccccc23)C(=O)N[C@@H](CCCCN)C(=O)N[C@@H]([C@@H](C)O)C(=O)N1)C(N)=O

>  <assayed-system>
Somatostatin receptor type 2 (Homo sapiens, UniProt P30874)

>  <unit-abbreviation>
nM

>  <IC50>
7.5

$$$$
>  <compound>
C[C@@H]1NC(=O)[C@@H](NC(=O)[C@H](N)Cc2ccccc2)CSSC[C@@H](C(=O)N[C@H](C(N)=O)[C@@H](C)O)NC(=O)[C@H]([C@@H](C)O)NC(=O)[C@H](CCCCN)NC(=O)[C@@H](Cc2c[nH]c3ccccc23)NC1=O

>  <assayed-system>
Somatostatin receptor type 2 (Homo sapiens, UniProt P30874)

>  <unit-abbreviation>
nM

>  <IC50>
3.6

$$$$

So the reported IC50 for C[C@@H](O)[C@@H]1NC(=O)[C@H](CCCCN)NC(=O)[C@@H](Cc2c[nH]c3ccccc23)NC(=O)[C@H](Cc2ccccc2)NC(=O)[C@@H](N)CSSC[C@@H](C(=O)O)NC1=O (H-CF[dW]KTC-OH; disulfide 1-6) , on Somatostatin receptor type 2 (Homo sapiens, UniProt P30874), turned out to be 378
